- System Name: Alpha1D (Homo sapiens, UniProt P25100)
- Construct: purchased NIMH Psychoactive Drug Screening Program (PDSP)
- Sequence (P25100 whole entry): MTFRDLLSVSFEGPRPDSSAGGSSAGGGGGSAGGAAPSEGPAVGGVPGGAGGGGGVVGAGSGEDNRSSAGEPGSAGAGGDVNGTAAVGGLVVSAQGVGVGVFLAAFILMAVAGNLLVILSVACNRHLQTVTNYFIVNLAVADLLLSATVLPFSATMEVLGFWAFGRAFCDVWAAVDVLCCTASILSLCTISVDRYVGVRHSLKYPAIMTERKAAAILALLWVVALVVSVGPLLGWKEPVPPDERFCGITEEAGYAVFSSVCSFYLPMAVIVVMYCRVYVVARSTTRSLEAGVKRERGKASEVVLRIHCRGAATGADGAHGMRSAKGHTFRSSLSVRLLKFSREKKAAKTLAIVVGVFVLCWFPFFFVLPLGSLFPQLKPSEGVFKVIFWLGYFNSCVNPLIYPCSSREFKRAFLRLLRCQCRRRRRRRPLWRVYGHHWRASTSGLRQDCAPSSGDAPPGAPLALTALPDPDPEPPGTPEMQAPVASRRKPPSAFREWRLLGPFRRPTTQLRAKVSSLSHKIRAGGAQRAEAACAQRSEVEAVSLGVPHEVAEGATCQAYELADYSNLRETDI
- Protocol Summary: PDSP primary binding Alpha1D
- Condition Label: 1.5 h; primary binding, 10,000 nM; last figure of the line = mean of the 4 before it; read-out: Alpha1D, PDSP raw data, mean
Task for the reader: assign each of the following compounds its reported inhibition at 10 µM.
Please give a number only; it is taken to be in %.

Query :: API: value(readout= inhibition at 10 µM, system= Alpha1D (Homo sapiens, UniProt P25100), query= CCc1noc(-c2ncn3c2[C@@H](C)N=C(c2ccccc2F)c2cc(Cl)ccc2-3)n1 )
Result :: -14.3

Query :: Also check C#Cc1ccc2c(c1)C(c1ccccc1Cl)=N[C@H](C)c1c(C(=O)N(C)CC)ncn1-2
Result :: -11.9

Query :: Also check CCc1noc(-c2ncn3c2[C@@H](C)N=C(c2ccccc2F)c2cc(C4CC4)ccc2-3)n1
Result :: 34.9

Query :: Also check C#Cc1ccc2c(c1)C(c1ccccn1)=N[C@@H](C)c1c(C(=O)NC)ncn1-2
Result :: -6.54

###

- System Name: peripheral benzodiazepine receptors (PBR) (Rattus norvegicus, UniProt P16257)
- Sequence (P16257 whole entry): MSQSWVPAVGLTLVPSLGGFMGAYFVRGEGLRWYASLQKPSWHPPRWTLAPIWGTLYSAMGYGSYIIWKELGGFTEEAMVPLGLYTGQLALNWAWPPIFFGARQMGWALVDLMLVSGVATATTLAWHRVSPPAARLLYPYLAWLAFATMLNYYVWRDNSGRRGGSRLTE
- Protocol Summary: PDSP radioligand binding at PBR
- Condition Label: 1.5 h, primary binding, 10,000 nM; last figure of the line = mean of the 4 before it; some tables list PBR twice; read-out: PBR, PDSP raw data, mean
Task for the reader: assign each of the following molecules its reported inhibition at 10 µM.
Please give a number only; it is taken to be in %.

Query :: Would you mind telling me what inhibition at 10 µM value was observed for CC(C)c1noc(-c2ncn3c2[C@@H](C)N=C(c2ccccc2F)c2cc(Cl)ccc2-3)n1 ?
Result :: 89.6

Query :: Also check C#Cc1ccc2c(c1)C(c1ccccc1F)=N[C@H](C)c1c(C(=S)N(C)C)ncn1-2
Result :: 22.3

Query :: Also check C[C@H]1N=C(c2ccccc2F)c2cc(-c3ccccc3)ccc2-n2cnc(C(=O)N(C)C)c21
Result :: 22.3

Query :: Also check C#Cc1ccc2c(c1)C(c1ccccn1)=N[C@@H](C)c1c(C(=O)NC)ncn1-2
Result :: 34.9

###

- System Name: kappa opioid receptors (KOR) (Homo sapiens)
- Sequence (P41145 whole entry): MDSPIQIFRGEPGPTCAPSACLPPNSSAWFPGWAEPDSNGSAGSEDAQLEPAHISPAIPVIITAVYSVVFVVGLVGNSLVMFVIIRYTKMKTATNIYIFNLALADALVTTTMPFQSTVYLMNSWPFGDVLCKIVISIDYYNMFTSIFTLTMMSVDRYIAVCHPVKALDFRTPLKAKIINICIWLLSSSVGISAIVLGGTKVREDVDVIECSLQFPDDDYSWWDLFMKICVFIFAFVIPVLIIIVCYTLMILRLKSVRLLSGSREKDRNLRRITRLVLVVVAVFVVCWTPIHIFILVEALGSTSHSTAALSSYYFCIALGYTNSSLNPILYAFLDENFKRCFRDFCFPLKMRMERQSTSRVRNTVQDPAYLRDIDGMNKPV
- Protocol Summary: PDSP radioligand binding at KOR
- Condition Label: 1.5 h; at 10,000 nM; N = 5; [3H]-U69593 0.83 nM; read-out: Primary Binding %KOR
Use 70% as the dividing line for inhibition at 10 µM, with the line itself on the Y side and lower values as N.

Query :: inhibition at 10 µM >= 70% for CCc1noc(-c2ncn3c2[C@@H](C)N=C(c2ccccc2F)c2cc(C4CC4)ccc2-3)n1 ?
Result :: Y

Query :: Also check C#Cc1ccc2c(c1)C(c1ccccn1)=N[C@@H](C)c1c(C(=O)N(C)C)ncn1-2
Result :: N

Query :: Also check C#Cc1ccc2c(c1)C(c1ccccn1)=N[C@@H](C)c1c(C(=O)NC)ncn1-2
Result :: N

###

Task for the reader: assign each of the following compounds its reported inhibition at 10 µM.
- System Name: Alpha4Beta2 (Rat Brain) (Rattus norvegicus, UniProt P09483+P12390)
- Construct: purchased NIMH Psychoactive Drug Screening Program (PDSP)
- Sequence (P09483 31-630): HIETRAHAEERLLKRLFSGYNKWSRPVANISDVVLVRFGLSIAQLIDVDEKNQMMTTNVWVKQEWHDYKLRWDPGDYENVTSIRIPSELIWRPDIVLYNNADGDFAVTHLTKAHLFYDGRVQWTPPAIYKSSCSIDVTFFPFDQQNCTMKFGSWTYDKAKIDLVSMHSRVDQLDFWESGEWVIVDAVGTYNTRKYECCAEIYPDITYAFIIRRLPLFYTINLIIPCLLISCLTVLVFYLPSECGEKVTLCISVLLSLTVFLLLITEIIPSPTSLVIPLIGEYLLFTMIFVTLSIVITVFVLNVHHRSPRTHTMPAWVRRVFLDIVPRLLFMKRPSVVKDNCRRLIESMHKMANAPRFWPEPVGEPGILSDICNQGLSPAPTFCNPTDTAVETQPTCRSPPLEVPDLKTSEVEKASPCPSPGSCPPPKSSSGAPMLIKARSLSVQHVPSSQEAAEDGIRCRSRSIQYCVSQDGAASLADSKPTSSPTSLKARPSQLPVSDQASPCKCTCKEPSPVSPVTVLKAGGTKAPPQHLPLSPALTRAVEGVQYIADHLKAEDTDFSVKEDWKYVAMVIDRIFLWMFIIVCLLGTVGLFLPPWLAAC
- Sequence (P12390 25-500): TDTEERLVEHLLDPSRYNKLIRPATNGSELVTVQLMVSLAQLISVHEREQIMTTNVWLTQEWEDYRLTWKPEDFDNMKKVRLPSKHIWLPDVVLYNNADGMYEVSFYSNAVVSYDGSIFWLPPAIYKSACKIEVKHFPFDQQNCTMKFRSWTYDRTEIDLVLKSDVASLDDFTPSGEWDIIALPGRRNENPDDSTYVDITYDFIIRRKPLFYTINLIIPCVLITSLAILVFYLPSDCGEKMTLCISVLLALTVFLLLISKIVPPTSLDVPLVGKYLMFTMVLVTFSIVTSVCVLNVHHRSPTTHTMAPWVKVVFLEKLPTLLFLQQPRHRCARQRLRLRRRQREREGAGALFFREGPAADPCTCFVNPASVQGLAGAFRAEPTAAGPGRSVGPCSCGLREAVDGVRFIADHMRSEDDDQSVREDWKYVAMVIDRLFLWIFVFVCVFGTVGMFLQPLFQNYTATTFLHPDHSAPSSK
- Protocol Summary: PDSP primary binding Alpha4Beta2 (Rat Brain)
- Condition Label: primary binding, 10,000 nM; last figure of the line = mean of the 4 before it; read-out: Alpha4Beta2 (Rat Brain), PDSP raw data, mean
Please give a number only; it is taken to be in %.

Query :: Would you mind telling me what inhibition at 10 µM value was observed for C#Cc1ccc2c(c1)C(c1ccccc1F)=N[C@H](C)c1c(C(=S)N(C)C)ncn1-2 ?
Result :: -5.7

Query :: Also check CC(C)c1noc(-c2ncn3c2[C@@H](C)N=C(c2ccccc2F)c2cc(Cl)ccc2-3)n1
Result :: -0.61

Query :: Also check CCc1noc(-c2ncn3c2[C@@H](C)N=C(c2ccccc2F)c2cc(C4CC4)ccc2-3)n1
Result :: -5.79

Query :: Also check C#Cc1ccc2c(c1)C(c1ccccn1)=N[C@@H](C)c1c(C(=O)NC)ncn1-2
Result :: 2.71
